Entries and their log10 of EC50
Tested on: SVMP activity of Crotalus atrox venom
TEST METHOD NOTES: SVMP fluorogenic substrate assay, C. atrox venom
CONDITION LABEL: read-out: EC50, known inhibitors validation screen, 30-min endpoint
Where a name gives a salt, the structure may show the parent alone.
ENDPOINT NAME: log10 of EC50 (log10 of the value in nM)

{"COMPOUND": "OCC(S)CS (centres unmarked)", "log10 of EC50": 3.69}
{"COMPOUND": "CC1(C)SCCN(S(=O)(=O)c2ccc(Oc3ccncc3)cc2)[C@H]1C(=O)NO [prinomastat, prinomastat hydrochloride]", "log10 of EC50": 1.30}
{"COMPOUND": "CNC(=O)[C@@H](NC(=O)[C@H](CC(C)C)[C@H](O)C(=O)NO)C(C)(C)C", "log10 of EC50": 1.08}
{"COMPOUND": "O=S(=O)(O)CC(S)CS (centres unmarked)", "log10 of EC50": 3.51}
{"COMPOUND": "CNC(=O)[C@H](Cc1ccccc1)NC(=O)[C@H](CC(C)C)[C@H](CSc1cccs1)C(=O)NO", "log10 of EC50": 1.19}

Every entry's value here was drawn from paper PMC10808794.
